test system: Cricetinae gen. sp.; assay: In vivo cholesterol absorption inhibitory activity using 7-day cholesterol-fed hamster model (expressed as percent change in serum cholesterol at 50 mg/kg/day); format: functional, Cricetulus griseus
Give measured Change for each item. Keep answers brief.
Output should be the measured figure followed by the unit it is expressed in.

{"columns": ["compound", "testSystem", "propertyLabel", "resultValue"],
 "data": [
  ["CCN(CC)c1ccc(N2C(=O)[C@H](CCCc3ccccc3)[C@H]2c2ccc(OC)cc2)cc1", "Cricetinae gen. sp.", "Change", "-51%"],
  ["COc1ccc(N2C(=O)[C@H](CCCc3ccccc3)[C@H]2c2ccc([N+](=O)[O-])cc2)cc1", "Cricetinae gen. sp.", "Change", "-11%"],
  ["COc1ccc([C@@H]2[C@@H](CCCc3ccccc3)C(=O)N2c2ccc(S(C)(=O)=O)cc2)cc1", "Cricetinae gen. sp.", "Change", "0%"]
]}

Please give Change for each item listed below.
1. COc1ccc([C@@H]2[C@H](CCc3ccccc3)C(=O)N2c2ccc(OC)cc2)cc1
2. COc1ccc([C@@H]2[C@@H](CCCc3ccccc3)C(=O)N2C2CCCCC2)cc1
3. COc1ccc([C@@H]2[C@@H](CCCc3ccccc3)C(=O)N2c2c(OC)cc(OC)cc2OC)cc1
4. COc1ccc([C@@H]2[C@@H](CCCc3ccccc3)C(=O)N2c2ccc(C(C)=O)cc2)cc1

OUTPUT:
0%
0%
0%
-40%

// for each compound in input: emit Change
1. COc1ccc(N2C(=O)[C@H](CCCc3ccccc3)[C@H]2c2ccc(OC(F)(F)F)cc2)cc1
2. COc1ccc([C@@H]2[C@@H](CCCc3ccccc3)C(=O)N2c2ccc(Oc3ccccc3)cc2)cc1
3. COc1ccc(N2C(=O)[C@@H](CCCc3ccccc3)[C@H]2c2ccc(S)cc2)cc1
4. CCCCOc1ccc([C@@H]2[C@H](CCCc3ccccc3)C(=O)N2c2ccc(OC)cc2)cc1
5. COc1ccc(N2C(=O)[C@H](CCCc3ccccc3)[C@H]2c2ccc(O)cc2)cc1
6. COc1ccc(CN2C(=O)[C@H](CCCc3ccccc3)[C@H]2c2ccc(OC)cc2)cc1
7. COc1ccc(N2C(=O)[C@@H](CCCc3ccccc3)[C@H]2c2ccc(OC)c(OC)c2)cc1

OUTPUT:
["0%", "-28%", "-19%", "-15%", "-16%", "0%", "0%"]

// each compound listed below needs its Change
1. COc1ccc([C@@H]2[C@H](CCCCCCc3ccccc3)C(=O)N2c2ccc(OC)cc2)cc1
2. COc1ccc([C@@H]2[C@@H](CCCc3ccccc3)C(=O)N2C(C)C)cc1
3. COCc1ccc([C@@H]2[C@@H](CCCc3ccccc3)C(=O)N2c2ccc(OC)cc2)cc1

OUTPUT:
["-29%", "-16%", "-27%"]

INPUT: Missing value: Change, Cricetinae gen. sp., entry `COc1ccc(N2C(=O)[C@H](CCCc3ccccc3)[C@H]2c2ccccc2OC)cc1` . Fill in?
OUTPUT: 0%

----------
system: Cricetinae gen. sp.; experiment: In vivo for cholesterol absorption inhibitory activity using 7-day cholesterol-fed hamster model (expressed as percent change in cholesteryl esters at 50 mg/kg/day); type: functional, Cricetulus griseus
Change vs -20%: at or above is rule met, below is rule not met.

Solved entries (count: 3):
{"columns": ["compound", "labelClass"],
 "data": [
  ["CCOc1ccc([C@@H]2[C@H](CCCc3ccccc3)C(=O)N2c2ccc(OC)cc2)cc1", "rule not met"],
  ["COc1ccc([C@@H]2[C@@H](CCCc3ccccc3)C(=O)N2c2ccc(Oc3ccccc3)cc2)cc1", "rule not met"],
  ["COc1ccc([C@@H]2[C@@H](CCCc3ccccc3)C(=O)N2C(=O)c2ccccc2)cc1", "rule met"]
]}

INPUT: Hi team, for `COc1ccc([C@@H]2[C@@H](CCCc3ccccc3)C(=O)N2c2ccc(C(C)=O)cc2)cc1` , is the recorded Change at or above -20%?
OUTPUT: rule not met
